# protocol_description: yeast display, Sf9 membrane polyspecificity reagent, FACS + sequencing; frameworks hold sequencing errors

{"query_sequence": "QVQLVESGGGLVQAGGSLRLSCAASGSTFVYNVMGWYRQAPGKERELVAAIRWRGGSTYADSVKGRFTISRDNAKNSVYLQMTSLKPQDTAVYYSNTGHEEDEYDYWGQGTQVTVSS", "polyreactivity (PSR sort gate)": "low polyreactivity"}
{"query_sequence": "QVQLVESGGGLVQAGGSLRLSCAASGSIFWGNAMGWYRQAPGKERELVAGISRGGSTYYADSVKGRFTISRDNAKNTVYLQMNSLKPEDTAVYYCNADSDPVTAGYDYWGQGTQVTVSS", "polyreactivity (PSR sort gate)": "low polyreactivity"}
{"query_sequence": "QVQLVESGGGLLQAGGSLRLSCDASGRIFGPNARGWYRQAPGKERELVDSISYSGGYTYYADSVKGRFTISRDNAKITFYLQMLSLIPVDTAVYYCAKGGYWSGYNYWGHGTQVTVSS", "polyreactivity (PSR sort gate)": "low polyreactivity"}
{"query_sequence": "QVQLVESGGGLVQAGGSLRLSCAASGFIKFYAMGWYRQAPGKERELVASISSGGRTNYADSVKGRFTISRDNAKNTVYLQMNSLKPEDTAVYYCAAIGWRTRSRFEYWGQGTQVTVSS", "polyreactivity (PSR sort gate)": "high polyreactivity"}
{"query_sequence": "QVQLVESVGGLVQAGGSLRLSCAASGSTFGHYAMGWYRQAPGKERELVSAISTSGGRTYYADSVKGRFTISRDNAKNTVYLQMNSLKPEDTAVYYCATRRYGVDKFDYWGQGTQVTVSS", "polyreactivity (PSR sort gate)": "high polyreactivity"}

* * *

# protocol_description: yeast display, Sf9 membrane polyspecificity reagent, FACS + sequencing; frameworks hold sequencing errors

{"query_sequence": "QVQLVESGGGLVQAGGSLRLSCAASGNIFVGNAMGWYRQAPGKERELVAAIRRSGGTTYYADSVKGRFTISRDIAKNTVYIQMNSLKPEDTAVYYSAASRPYQGDYWGQGTQVTVSS", "polyreactivity (PSR sort gate)": "low polyreactivity"}
{"query_sequence": "QVQLVESGGGLVQAGGSLRLTCAASGRIFWGNAMGWYRQAPGKERDLVAAITSCDGTNYADSVKGRFTISRDNAKNTVYLQMNSLKPEDTAVYYCAARKYYYLQYTPRYDYWGQGTQVTVSS", "polyreactivity (PSR sort gate)": "low polyreactivity"}
{"query_sequence": "QVQLVESGGGLVQAGGSLRLSCAASGSIFTGYAMGWYRQAPGKERELVAAIRTRGGSTYYADSVKGRFTISRDNAKNTVYLQMNSLKPEDTAVYYCAKRYYGWYGNFDYWGQGTLVTVSS", "polyreactivity (PSR sort gate)": "high polyreactivity"}
{"query_sequence": "QVQLVESGGGLVQAGGSLRLSCAASGLTFVDNAMGWYRQAPGKERELVAAISYNGGSTYYADSVMGRFTISRDNAKNTVYLLMNSLKPEDTAVYYCAADISVGRYGDMDYWGQGTQVTVSS", "polyreactivity (PSR sort gate)": "low polyreactivity"}
{"query_sequence": "QVQLVESGGGLVQAGGSLRLSCAASGNTFPVNAMGWYRQAPGKERDLVAAISRTGASTYYADSVKGRITISRDNAKNTVYLQMNSLKPEDTAVYYCAKYLKTPHNRRRVEALGYWGQGTQVTVSS", "polyreactivity (PSR sort gate)": "high polyreactivity"}
{"query_sequence": "QVQLVESGGGLVQAGGSLRLSCAASGRTFRYNAMGWYRQAPGKERELVAAITYSGGTTYADSVKGRFTISRDNAKNTVYLQMNSLKPEDTAGYYCAARGYVWNIGRYYWGQGTQVTVSS", "polyreactivity (PSR sort gate)": "high polyreactivity"}
{"query_sequence": "QVQLVESGGGLVQAGGSLRLSCAASGRIFAPYAMGWYRQAPGKERELVAAITRGGITNYADSVKGRFTISRDNAKNTVYLQMNSLKPEDSAVYYCETVVNRRGFYQYFYWGQGTQVTVSS", "polyreactivity (PSR sort gate)": "high polyreactivity"}
{"query_sequence": "QVQLVESGGGLVQAGGSLRLSCAASGRTFARYALGWYRQAPGKERELVAAISWSGGSTYYADSVKGRFTISRDNAKNTVYLQMNSLKPEDTAVDYCAAGYGARSAKFDVYGTNEGDYWGQGTQVTVSS", "polyreactivity (PSR sort gate)": "high polyreactivity"}
{"query_sequence": "QVQLVESGGGLVQAGGSLRLSCAASGFTLFGYAMGWYRPAPGKERELVAAITSGDGRTYYADSVKGRFTISRDNAKNTVYLQMNSLKPEDTAVYYCAATRYSSYYYVRHDHWGQGTQVTVSS", "polyreactivity (PSR sort gate)": "low polyreactivity"}
{"query_sequence": "QVQLVESGGGLVQAGGSLRLSCAASGFTFYRYTMGCYRQAPGKERELVAAISSGDSTYYADSVKGRFTISRDNAKNTVYLQMNSLKPEDTAVYYCAARQYSRGAIVYYWGQGTQVTVSS", "polyreactivity (PSR sort gate)": "high polyreactivity"}
{"query_sequence": "QVQLVESGGGLVQAGGSLRLSCAASGSTFDYYAMGWYRQAPGKERDLVAGITSDGSTDYADSVKGRFTISRDNAKNTVYLQMNSLKPEDTAVYYCAVDGDPVFYTTYYYSYYYWGQGTQVTVSS", "polyreactivity (PSR sort gate)": "low polyreactivity"}
{"query_sequence": "QVQLVESGGGLVQAGGSLRLSCAASGGTFYYNTMGWYRQAPGQERELVAAIRSTGGSTYDADSVKGRFTISRDNAKNTVYLQMNSLKPEDTAVYYCAKKVYTRRRGSDYWGQGTQVTVSS", "polyreactivity (PSR sort gate)": "high polyreactivity"}
{"query_sequence": "QVQLVESGGGLVQAGGSLRLSCAASGFTLGSYAMGWYRQAPGKDRELVARISSDGSTNYADSVKGRFTISRDNAKNTVYLQMNSLKPEDTAVYYCAADFTYYDSPYRDYNYESWGQGAQVTVSS", "polyreactivity (PSR sort gate)": "low polyreactivity"}
{"query_sequence": "QVQLVESGGGLVQAGGSLRLSCAASGGIFWRYAMGWYRPAPGKERELVAAISSRGGSTYYADSVKGRFTISRDNAKNTVYLQMNSLKPEDTAVYYCAADRRYAESGYYWGQGTQVTVSS", "polyreactivity (PSR sort gate)": "high polyreactivity"}
{"query_sequence": "QVQLVESGGGLVQARGSLRLSCAATGFTIWQNAMGWYRQPQGKERELVAGIRLSGGSTYADSVKGRFTIARDNAKNTVYLQMNSLKPEDTAVYYCAARIAGNYRYRSLRYDYWGQGTQVTVSS", "polyreactivity (PSR sort gate)": "high polyreactivity"}
{"query_sequence": "QVQLVESGGGLVQAGGSLRLSCAASGSIFSPYAMGWYRQAPGKERELVAAISFRASTTYYADSVKGRFTISRDNAKNTVYLQMNSLKPEDTAVYYCAASPLYSWFWGLYDYWGQGTQVTVSS", "polyreactivity (PSR sort gate)": "low polyreactivity"}
{"query_sequence": "QVQLVESGGGLVQAGGSLRLSCAASGYIFGNYAMGCYRQAPGKERELVAAISKSGVTTYYADSVKGRFTISRDNAKNTVYLQMNSLKPEDTAVYYCNARSWRPINARYNEYDYWGQGTQVTVSS", "polyreactivity (PSR sort gate)": "low polyreactivity"}
{"query_sequence": "QVQLVESGGGLVQAGGSLRLSCAASGRIFSDYVMGWYRQAPGKERELVADITGGGSTYYADSVKGRFTISRDNAKNTVYLQMNSLKPEDTAVYYCAARVYSYWDRSQRYYYCGQGTQVTVSS", "polyreactivity (PSR sort gate)": "high polyreactivity"}
{"query_sequence": "QVQLVESGRGLVQAGGSLRLSCAASGSNFRAYAMGWSRQAPGKERELVAAISIGGRTYYADSVKGRFTISRDNAKNTVYLQMNSLKPEDTAVYYCAAVRSYVKGGMYYWGQGTQVTVSS", "polyreactivity (PSR sort gate)": "low polyreactivity"}
{"query_sequence": "QVQLQESGGGQVQAGGSLRLSCAASGTIFLYAFKGWYRQAPGKERELVAAIDVGTTTNYADSVKGRFTISRDNAKNTVYLQMNSLKPEDTAVYYCAANLGYLDDLGYWGQGTQVTVSS", "polyreactivity (PSR sort gate)": "low polyreactivity"}
{"query_sequence": "QVQLVESGGGLVQAGGSLRLSCAASGSTFRYYAMGWYRQAPGKERELVAVISTSGNTYYADSVKGRFTISRDNAKNTVYLQMNSLKPEDTAVYYCAARGVGGQISQEYDYWGQGTQVTVSS", "polyreactivity (PSR sort gate)": "low polyreactivity"}

Reference source for all entries: the nanobody polyreactivity screen of Harvey et al. (2022)
